TESTED_SYSTEM: CCK-1 receptor (Homo sapiens)
Construct: expressed in transfected cells; membranes
Sequence (P32238 whole entry): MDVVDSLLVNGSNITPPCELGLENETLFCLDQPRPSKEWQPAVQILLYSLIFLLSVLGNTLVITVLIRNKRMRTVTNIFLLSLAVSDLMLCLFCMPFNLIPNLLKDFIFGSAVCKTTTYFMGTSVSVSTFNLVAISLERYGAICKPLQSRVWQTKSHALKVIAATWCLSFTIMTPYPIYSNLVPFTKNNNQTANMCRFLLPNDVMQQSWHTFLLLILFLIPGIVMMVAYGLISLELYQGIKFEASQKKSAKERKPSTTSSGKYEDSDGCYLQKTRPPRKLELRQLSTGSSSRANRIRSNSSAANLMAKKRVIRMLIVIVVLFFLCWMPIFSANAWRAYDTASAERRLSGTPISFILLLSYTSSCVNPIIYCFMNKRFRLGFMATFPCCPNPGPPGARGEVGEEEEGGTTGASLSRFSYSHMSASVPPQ
PROTOCOL_TEXT: CCK-1 receptor radioligand binding assay ([125I]-BH-CCK-8S displacement, membranes of stably transfected CHO-K1 cells)
CONDITION_PARAMETERS: membranes of CHO-K1 cells stably transfected with CCK-1 receptor, 0.3 μM PD-134,308 present
pKi: −log10 of the molar value.
Tag: TRUE if measured pKi is not below 7, FALSE if it is.

Examples with answers:
Cc1cccc(C(Cc2cc(-c3ccc4ccccc4c3)n(-c3cccc[n+]3[O-])n2)C(=O)O)c1 (centres unmarked) : FALSE
COc1ccc(-n2nc(CC(C(=O)O)c3cccnc3)cc2-c2ccc(Cl)cc2)cc1 (centres unmarked) : FALSE
Cc1cccc(C(Cc2cc(-c3ccc4ccccc4c3)nn2Cc2ccncc2)C(=O)O)c1 (centres unmarked) : TRUE
Cc1cccc(C(Cc2cc(-c3ccc4ccccc4c3)n(-c3ccccn3)n2)C(=O)O)c1 (centres unmarked) : TRUE
Cc1ccc(-n2nc(CC(C(=O)O)c3cccc(C)c3)cc2-c2ccc(N(C)C)cc2)cc1 (centres unmarked) : TRUE

Here is the next item to consider.
Form field: pKi at least 7? Entry: Cc1ccc(-c2cc(CC(C(=O)O)c3cccc(Cl)c3Cl)nn2-c2ccc(Cl)c(Cl)c2)cc1 (centres unmarked)
TRUE
